// data source = patent US9920010B2

target: CXCR7 (Homo sapiens, UniProt P25106); test: PathHunter CHO-K1 CXCR7 b-arrestin recruitment assay (CXCR7 agonistic activity); details: PathHunter CHO-K1 CXCR7 b-arrestin cell line
Sequence (P25106 whole entry): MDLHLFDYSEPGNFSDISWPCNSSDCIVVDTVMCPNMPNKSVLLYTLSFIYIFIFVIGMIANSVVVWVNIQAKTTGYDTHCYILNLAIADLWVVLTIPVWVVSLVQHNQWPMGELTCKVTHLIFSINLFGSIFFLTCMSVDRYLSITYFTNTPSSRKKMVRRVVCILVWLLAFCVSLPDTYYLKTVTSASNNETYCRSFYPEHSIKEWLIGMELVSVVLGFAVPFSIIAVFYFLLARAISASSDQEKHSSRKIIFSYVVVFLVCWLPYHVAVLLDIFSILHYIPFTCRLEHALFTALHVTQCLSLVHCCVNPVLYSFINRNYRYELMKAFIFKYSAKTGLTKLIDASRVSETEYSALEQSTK
Sequence (P32121 whole entry partner): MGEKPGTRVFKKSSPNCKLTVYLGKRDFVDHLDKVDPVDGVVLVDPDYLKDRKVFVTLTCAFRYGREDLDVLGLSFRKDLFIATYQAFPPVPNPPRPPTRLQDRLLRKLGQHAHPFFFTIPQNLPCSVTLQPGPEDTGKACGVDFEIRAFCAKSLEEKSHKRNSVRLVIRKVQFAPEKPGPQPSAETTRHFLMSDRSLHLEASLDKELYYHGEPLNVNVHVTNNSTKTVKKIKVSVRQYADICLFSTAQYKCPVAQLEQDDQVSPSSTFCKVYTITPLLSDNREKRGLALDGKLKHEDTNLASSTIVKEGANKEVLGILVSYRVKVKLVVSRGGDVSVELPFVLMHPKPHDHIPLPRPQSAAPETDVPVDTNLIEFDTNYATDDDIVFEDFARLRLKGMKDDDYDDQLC
quantity: pEC50
One number for each entry, as −log10 of the molar value.

# count of solved cases: 3
COC(=O)N1CCc2cccc(OCC(=O)N(CCN(C)C)Cc3ccccc3)c2C1    7.40
CNCCN(Cc1ncccc1C(F)(F)F)C(=O)CNc1cccc2c1CCN(C(=O)OCC(C)(C)C)C2    6.92
CC(C1CC1)N1CCc2c(cccc2NCC(=O)N(CCN(C)C)Cc2ccccc2C(F)(F)F)C1 (centres unmarked)    8.40

// input: 3 compounds below; output: pEC50 for each
1. CC1c2cccc(NCC(=O)N(CCN(C)C)Cc3ccccc3C(F)(F)F)c2CCN1CC1CC1 (single isomer, unassigned) [Example 211a]
2. O=C(/C=C/c1cccc2c1CCN(CC1CC1)C2)N(CCO)Cc1ccccc1
3. C=CCN(C)CCN(Cc1ccccc1C(F)(F)F)C(=O)CCc1cccc2c1CN(CC=C)CC2

A.
1: 9.00; 2: 7.26; 3: 7.85

// input: 2 compounds below; output: pEC50 for each
1. CCCCN(C)CCN(Cc1ccccc1)C(=O)CNc1cccc2c1CCN(C(=O)CC)C2
2. CC(C)(O)CN(Cc1ccccc1C(F)(F)F)C(=O)CNc1cccc2c1CCN(CC1CC1)C2

A.
1: 7.89; 2: 8.10
